Tgt: hPXR (Homo sapiens)
Sequence (O75469 whole entry): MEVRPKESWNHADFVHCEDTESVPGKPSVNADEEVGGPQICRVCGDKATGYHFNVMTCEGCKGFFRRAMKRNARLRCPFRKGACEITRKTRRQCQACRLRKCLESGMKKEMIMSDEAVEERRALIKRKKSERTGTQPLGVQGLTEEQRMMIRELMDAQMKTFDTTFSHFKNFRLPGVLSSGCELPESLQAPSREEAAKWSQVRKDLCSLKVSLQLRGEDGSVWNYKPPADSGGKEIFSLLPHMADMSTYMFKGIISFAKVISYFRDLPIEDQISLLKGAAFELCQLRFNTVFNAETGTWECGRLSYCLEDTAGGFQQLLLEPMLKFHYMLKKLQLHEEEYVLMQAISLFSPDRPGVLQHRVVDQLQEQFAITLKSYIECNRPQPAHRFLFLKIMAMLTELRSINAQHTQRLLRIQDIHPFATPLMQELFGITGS
Here the recorded PXR Primary Efficacy is given for each entry.
Measured Attribute: PXR Primary Efficacy

CC(C)C[C@H](NC(=O)[C@H](Cc1ccccc1)NC(=O)c1cnccn1)B(O)O [Bortezomib]; 0.008 ± 0.0005 [97.7 ± 17.9] %
Cc1nc(Nc2ncc(C(=O)Nc3c(C)cccc3Cl)s2)cc(N2CCN(CCO)CC2)n1 [Dasatinib]; 0.3 ± 0.5 [84.6 ± 22.2] %
Nc1nc(Cl)nc2c1ncn2[C@@H]1O[C@H](CO)[C@@H](O)[C@@H]1F [Clofarabine]; 0.7 ± 0.2 [112 ± 34.6] %
O=C(CCCCCCC(=O)Nc1ccccc1)NO [Vorinostat (SAHA), Vorinostat]; 7.8 ± 3.8 [182 ± 46.9] %
COc1cccc(N(C)C(=S)Oc2ccc3c(c2)CCCC3)n1 [Liranaftate]; 5.5 ± 2.6 [148 ± 42.6] %
